biological target: Microphthalmia-associated transcription factor (Homo sapiens) (UniProt O75030); test: MITF inhibitors, potency by titration, dose response, biochemical, AlphaScreen, human (AID 1259371); conditions: AlphaScreen biochemical MITF assay, signal inhibition
Sequence (O75030 whole entry, looked up): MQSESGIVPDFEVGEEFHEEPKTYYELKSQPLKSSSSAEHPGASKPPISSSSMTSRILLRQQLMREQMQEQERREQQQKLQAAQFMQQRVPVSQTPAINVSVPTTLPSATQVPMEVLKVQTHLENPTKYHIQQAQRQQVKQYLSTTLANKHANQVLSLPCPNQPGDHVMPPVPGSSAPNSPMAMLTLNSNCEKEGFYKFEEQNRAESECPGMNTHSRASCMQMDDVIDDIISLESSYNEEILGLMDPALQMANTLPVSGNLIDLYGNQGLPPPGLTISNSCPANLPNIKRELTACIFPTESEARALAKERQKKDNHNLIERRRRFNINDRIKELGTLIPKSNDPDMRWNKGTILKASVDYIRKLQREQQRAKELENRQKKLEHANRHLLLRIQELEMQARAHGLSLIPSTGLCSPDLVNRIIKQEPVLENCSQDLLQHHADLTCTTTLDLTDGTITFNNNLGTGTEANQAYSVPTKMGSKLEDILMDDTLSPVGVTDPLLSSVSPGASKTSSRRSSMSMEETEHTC
Activity calls are given as the source filed them. How the calls were made is not given here.
Hi! Could you answer with just one of these? 1 (active), 0 (inactive)

INSERT INTO measurements (compound, class_assignment) VALUES
  ('COC(=O)c1ccc(=O)c2nc3/c(=C/O)c(O)cc(=O)c3[nH]c12', 1),
  ('O=C(COC(=O)/C=C/c1ccco1)COC(=O)/C=C/c1ccco1', 1),
  ('CC1=C/C(=N\N=C2\NC(=O)C(CC(=O)Nc3ccc(C(=O)O)cc3)S2)CC(C)(C)C1 (stereo not given)', 1),
  ('CCCOc1ccc(N)cc1N', 0);

Now consider the entry below.
Prompt line: Test call for this compound, please: COc1ccc(CCNC(=O)CN2CCN(Cc3nc(-c4ccco4)cs3)CC2)cc1OC
Response line: 0

====

target: UniProt O75030; assay: MITF inhibitors, potency by titration, dose response, biochemical, AlphaScreen, human (AID 1259371); conditions: AlphaScreen biochemical MITF assay, signal inhibition
Calls of active or inactive are those of the source. The rule behind the calls is not given here.
Hi! Could you answer with just one of these? Yes (active), No (inactive)

INSERT INTO measurements (compound, class_assignment) VALUES
  ('OCCNc1cc(-c2cccs2)ncn1', 'No'),
  ('NC(=O)c1cncc(-c2cccs2)c1', 'Yes'),
  ('O=C(NNC(=O)c1cc(-c2ccco2)nc2ccccc12)NC1CCCCC1', 'Yes'),
  ('O=C(NCC(c1cccs1)S(=O)(=O)c1ccc(Cl)cc1)c1ccco1 (configuration not stated)', 'No'),
  ('COc1cccc(COC(=O)Nc2ccc(-c3cn[nH]c3)cc2N(C)CCN(C)C)c1', 'No'),
  ('O=C(O)CCN(CCC(=O)O)c1ccc(O)cc1', 'Yes'),
  ('Cn1cc(-c2nc(Nc3ccc(-n4cnc(N5CCOCC5)n4)cc3)ncc2Br)cn1', 'No'),
  ('O=P(O)(O)C(Sc1ccc(Cl)cc1)P(=O)(O)O', 'Yes');

Prompt line: Test call for this compound, please: CNC(=O)Nc1ccc2nc(-c3ccco3)c(-c3ccco3)nc2c1
Response line: Yes

Prompt line: Test call for this compound, please: Cc1ccccc1/C=C1\N=C(c2cc(C3=N/C(=C/c4ccccc4C)C(=O)O3)cc(C3=N/C(=C/c4ccccc4C)C(=O)O3)c2)OC1=O
Response line: No

Prompt line: Test call for this compound, please: C[C@@H]1NC(=O)[C@H]2CN(C(=O)NCc3ccccc3)CCN2C1=O
Response line: No

Prompt line: Test call for this compound, please: CC[C@H](C)[C@@H]1NC(=O)[C@H]2CN(C(=O)NC3CCCCC3)CCN2C1=O
Response line: No

Prompt line: Test call for this compound, please: Cc1cccc(CN2CCN(S(=O)(=O)c3ccccc3[N+](=O)[O-])CC2)c1
Response line: No

Prompt line: Test call for this compound, please: O=C(NC1CCCCC1)N1CCN2C(=O)[C@@H]3CCCN3C(=O)[C@H]2C1
Response line: No

Prompt line: Test call for this compound, please: C/C(=N\Nc1ccc(S(=O)(=O)O)cc1)c1cccc(Br)c1
Response line: No

Prompt line: Test call for this compound, please: N/C(=N\[N+](=O)[O-])N/N=C\c1ccc(-c2ccc(O)c(C(=O)O)c2)o1
Response line: Yes

Prompt line: Test call for this compound, please: O=C(O)/C=C/c1ccc([N+](=O)[O-])o1
Response line: No

Prompt line: Test call for this compound, please: CCOc1cc(-c2ccc(I)o2)cc(=O)c2c(C)oc(C)c12
Response line: Yes

Prompt line: Test call for this compound, please: COc1ccc(CC2NCCc3cc(OC)c(OC)cc32)cc1OC (configuration not stated)
Response line: Yes

Prompt line: Test call for this compound, please: O=C(/C=C/c1ccco1)Nc1nnc(-c2ccco2)s1
Response line: No

Prompt line: Test call for this compound, please: O=C(NCc1ccccc1)N1CCN2C(=O)[C@H]3CCCN3C(=O)[C@H]2C1
Response line: No

Prompt line: Test call for this compound, please: CC(=O)NS(=O)(=O)c1ccc(NC(=O)c2ccc([N+](=O)[O-])o2)cc1
Response line: No

====

biological target: Microphthalmia-associated transcription factor (Homo sapiens); experiment: MITF inhibitors, potency by titration, dose response, biochemical, AlphaScreen, human (AID 1259371); conditions: AlphaScreen biochemical MITF assay, signal inhibition
Calls of active or inactive are those of the source. How the calls were made is not given here.
Result Type: IC50

Check out these entries, answers already filled in.
INSERT INTO measurements (compound, recorded_result) VALUES
  ('O=C(c1ccc2c(c1)C(=O)N(Cc1cccnc1)C2=O)c1ccc2c(c1)C(=O)N(Cc1cccnc1)C2=O', 'inactive'),
  ('CC(=O)CC1=C(C(=O)O)N2C(=O)C(N)C2SC1 (stereo not given)', '> 6.48 µM (inactive)'),
  ('COc1cccc(C(=O)N2CCN(Cc3cccc(Cl)c3)CC2)c1', '> 4.8 µM (inactive)'),
  ('N#Cc1cc([N+](=O)[O-])ccc1NC(=O)COC(=O)c1cc(-c2ccco2)nc2ccccc12', 'inactive'),
  ('Cc1cccc(NC(=O)c2ccc(NS(=O)(=O)c3ccc4[nH]cc(C(=O)O)c(=O)c4c3)cc2)c1', '> 1.58 µM (inactive)');

Value sought for every listed compound: IC50.
1. Cc1ccc(N2C(=O)c3ccccc3NC2c2cccc([N+](=O)[O-])c2)cc1 (stereo not given)
2. O=C(O)c1cc(S(=O)(=O)Nc2ccncc2)ccc1O
3. CCN1CCN(Cc2coc3ccccc3c2=O)CC1
4. O=S(=O)(O)c1cc(S(=O)(=O)O)c2cc(O)c(S(=O)(=O)O)cc2c1
5. O=C(NC1CCCCC1)N1CCN2C(=O)[C@@H]3CSCN3C(=O)[C@H]2C1

Response line:
1: > 5.15 µM (inactive); 2: inactive; 3: > 6.48 µM (inactive); 4: 0.156 µM; 5: inactive

====

target: Microphthalmia-associated transcription factor (Homo sapiens) (UniProt O75030); assay: MITF inhibitors, potency by titration, dose response, biochemical, AlphaScreen, human (AID 1259371); conditions: AlphaScreen biochemical MITF assay, signal inhibition
Calls of active or inactive are those of the source. No rule for the calls is given here.
Hi! Could you answer with just one of these? class 1 = active, class 0 = inactive

INSERT INTO results (compound, class_assignment) VALUES
  ('O=C(O)c1cccc(-n2cccc2/C=C\[N+](=O)[O-])c1', 'class 1'),
  ('CCOc1ccccc1N1CCN(Cc2cc(OC)c(O)c([N+](=O)[O-])c2)CC1', 'class 0'),
  ('O=C(O)c1ccc(NC2OC(CO)C(O)C2O)cc1 (stereo unspecified)', 'class 0'),
  ('Cc1ncn(-c2ccc(N(C)c3ncc4cccc(-c5ccn[nH]5)c4n3)cc2)n1', 'class 0'),
  ('O=C(O)c1cccc2c1C(=O)N(c1ccccc1)C2', 'class 0');

Now consider the entry below.
Prompt line: Test call for this compound, please: Cc1noc(C2CN(C(=O)c3ccc(-n4cccc4)cc3)C2)n1
Response line: class 0

====

molecular target: UniProtKB O75030; test: MITF inhibitors, potency by titration, dose response, biochemical, AlphaScreen, human (AID 1259371); details: AlphaScreen biochemical MITF assay, signal inhibition
Activity calls are given as the source filed them. No rule for the calls is given here.
Hi! Could you answer with just one of these? active, inactive

Check out these entries, answers already filled in.
INSERT INTO measurements (molecule, class_assignment) VALUES
  ('O=C(/C=C/c1ccco1)Nc1c[nH]c(=O)[nH]c1=O', 'inactive'),
  ('CN(C)C1C(=O)C(C(N)=O)=C(O)C2(O)C(=O)C3=C(O)c4c(O)cccc4C(C)(O)C3CC12 (stereo unspecified)', 'inactive');

Prompt line: Test call for this molecule, please: Nc1ccc(C(=O)O)c(O)c1
Response line: active

Prompt line: Test call for this molecule, please: CCN(CCN(C)C)Cc1ccc(F)cc1
Response line: inactive

Prompt line: Test call for this molecule, please: Cc1ccc(C)n1C(Cc1c[nH]c2ccccc12)C(=O)O (stereo unspecified)
Response line: active

Prompt line: Test call for this molecule, please: O=C(NC1CCCCC1)N1CCN2C(=O)[C@H]3CCCN3C(=O)[C@H]2C1
Response line: active

Prompt line: Test call for this molecule, please: Cc1oc(C(=O)O)cc1CSCCSCc1cc(C(=O)O)oc1C
Response line: inactive

====

target: Microphthalmia-associated transcription factor (Homo sapiens); experiment: MITF inhibitors, potency by titration, dose response, biochemical, AlphaScreen, human (AID 1259371); conditions: AlphaScreen biochemical MITF assay, signal inhibition
Active and inactive are the calls of the source. The rule behind the calls is not given here.
Hi! Could you answer with just one of these? active, inactive

INSERT INTO assay_data (compound, class_assignment) VALUES
  ('CCn1ccnc1CN1CCN(Cc2cccc(OC)c2)C(CCO)C1 (stereo unspecified)', 'inactive'),
  ('Cc1cccc(OCC(=O)N2CCN(Cc3cccc(Br)c3)CC2)c1', 'inactive'),
  ('CCOC(=O)N1CCC(NC(=O)CCc2nc(C3=CCN(C)CC3)no2)CC1', 'inactive'),
  ('COC(=O)CN1C(=O)S/C(=C/c2ccc([N+](=O)[O-])o2)C1=O', 'inactive'),
  ('O=C1O[C@H](C(O)CO)C(O)=C1O (stereo partly specified)', 'inactive');

Prompt line: Test call for this compound, please: O=c1[nH]cc(N=Cc2ccc([N+](=O)[O-])o2)c(=O)[nH]1
Response line: active

Prompt line: Test call for this compound, please: O=C(CCc1ccco1)Nc1ccc(-c2cn3c4c(nnc3n2)CCCC4)cc1
Response line: active

Prompt line: Test call for this compound, please: N#Cc1c(SCC(=O)O)nc2c(c1-c1ccco1)CCC2
Response line: active

Prompt line: Test call for this compound, please: O=[N+]([O-])c1ccc(N/N=C/c2ccco2)c(S(=O)(=O)N2CCOCC2)c1
Response line: inactive

Prompt line: Test call for this compound, please: NC(=O)COC(=O)/C=C/c1ccc(I)o1
Response line: inactive

Prompt line: Test call for this compound, please: N#C/C(=C\c1ccc(-c2ccccc2C(=O)O)o1)C(=O)NCc1ccco1
Response line: active
